Test system: NCI-H460 lung
Assay: NCI-60 one-dose screen, 48 h
Details: 100 µM
Compounds without any hit were thinned out: in the full panel of roughly 83,000, 20% have a hit. Active and inactive are the calls of the source. How the source made its calls: active means growth percent below 10; inactive means the rest.
One label from this list, please: active, inactive

Prompt: Tell me the recorded outcome of this test for CC(=O)/C=C/c1ccc(N(CCO)Cc2ccc(C(C)(C)C)cc2)cc1 .
Response: active

Prompt: Tell me the recorded outcome of this test for CC(=O)/C=C/c1ccc(OCc2ccc(Cl)cc2)cc1 .
Response: inactive

Prompt: Tell me the recorded outcome of this test for O=C(/C=C/c1cccc(Oc2ccc(Cl)cc2)c1)c1ccccc1 .
Response: active

Prompt: Tell me the recorded outcome of this test for CC(=O)/C=C/c1ccc(OCc2ccc(C(C)(C)C)cc2)cc1 .
Response: inactive

---

Tested on: MOLT-4 leukemia
Test: NCI-60 one-dose screen, 48 h (100 = growth as untreated, 0 = no growth, -100 = all killed)
Settings: 10 µM
Protocol: Growth inhibition of the MOLT-4 human tumor cell line is measured as a screen for anti-cancer activity. Cells are grown in 96 well plates and exposed to the test compound for 48 hours. Compounds are tested at a single concentration, which is 10^-5 M for most compounds. The reported endpoint is percent growth (GI% or GIPRCNT), where numbers from 0 - 100% represent growth inhibition, and numbers from -100% - 0 represent cell death. For example, a value of 40 represents 60% growth inhibition. […]
This is part of a sample that, as a whole, favours compounds with a hit. Of some 83,000 tested, about 20% had one in any assay.
For each of the compounds below, state its growth.
Number only, in %; omit the unit.

Prompt: growth lookup needed for COc1ccc(C(=O)/C=C/c2ccc(OCc3cccc(C(F)(F)F)c3)c(OC)c2)cc1OC , thanks.
Response: 42.2

Prompt: growth lookup needed for CCN(Cc1ccccc1)c1ccc(/C=C2\COc3ccccc3C2=O)cc1 , thanks.
Response: 78.6

Prompt: growth lookup needed for O=C(/C=C/c1cccc(Oc2ccc(Cl)cc2)c1)c1ccccc1 , thanks.
Response: 62.6

Prompt: growth lookup needed for CC(=O)/C=C/c1ccc(N(C)Cc2ccc(C(C)(C)C)cc2)cc1 , thanks.
Response: 62.2

Prompt: growth lookup needed for COc1ccc(C(=O)/C=C/c2ccc(OCc3ccc(Cl)cc3)cc2)cc1OC , thanks.
Response: 90.4

---

Test system: HCT-116 colon
Test: NCI-60 one-dose screen, 48 h
Conditions: 100 µM
Compounds without any hit were thinned out: in the full panel of roughly 83,000, 20% have a hit. Calls of active or inactive are those of the source. How the source made its calls: active means growth percent below 10; inactive means the rest.
One label from this list, please: 1 for active, 0 for inactive

Prompt: Tell me the recorded outcome of this test for CC(=O)/C=C/c1ccc(N(CCO)Cc2ccc(C(C)(C)C)cc2)cc1 .
Response: 1

Prompt: Tell me the recorded outcome of this test for CC(=O)/C=C/c1ccc(OCc2ccc(C(C)(C)C)cc2)cc1 .
Response: 0

Prompt: Tell me the recorded outcome of this test for O=C(/C=C/c1cccc(Oc2ccc(Cl)cc2)c1)c1ccccc1 .
Response: 1

Prompt: Tell me the recorded outcome of this test for CC(=O)/C=C/c1ccc(OCc2ccc(Cl)cc2)cc1 .
Response: 0

Prompt: Tell me the recorded outcome of this test for CCN(Cc1ccccc1)c1ccc(/C=C2\COc3ccccc3C2=O)cc1 .
Response: 0

---

For each of the molecules below, state its growth.
Tested on: RPMI-8226 leukemia
Experiment: NCI-60 one-dose screen, 48 h (100 = growth as untreated, 0 = no growth, -100 = all killed)
Conditions: 10 µM unless noted
About 83,000 compounds went through this panel and 20% of them were active in at least one assay; those are over-represented in the sample as a whole. Calls of active or inactive are those of the source. Rule for the calls: active = growth percent below 10; inactive = the rest.

Prompt: growth lookup needed for N=c1c2c(-c3ccccc3)c(-c3ccccc3)oc2ncn1NC(=O)c1cccnc1 , thanks.
Response: 97.5% (inactive)

Prompt: growth lookup needed for CCN1C(=S)N(CC)C2C1NC(=S)N2/N=C/C=C/c1ccccc1 (stereo unspecified) , thanks.
Response: 41.4% (inactive)

Prompt: growth lookup needed for CCN(CC)CC(=O)Nc1ccc2ncnc(Nc3ccc(Oc4cccc(F)c4)c(Cl)c3)c2c1 , thanks.
Response: 27.6% (inactive)

Prompt: growth lookup needed for CCCNNC(=O)/C=C/c1ccc(CNCCc2c(C)[nH]c3ccccc23)cc1 , thanks.
Response: 16.3% [2.5 µM] (inactive)

Prompt: growth lookup needed for N#Cc1ccccc1-c1ccc(Cn2c(-c3cscn3)nc3c(Cl)cccc32)cc1 , thanks.
Response: 48.3% (inactive)

Prompt: growth lookup needed for COc1ccc(-c2ccc(-c3ccc(C(=N)N)cn3)o2)cc1Cl , thanks.
Response: -35.5% (active)

Prompt: growth lookup needed for CCCCCCCCCCCCCCCCCCOc1cccc(CC(=O)OCC[N+](CC)(CC)CC)c1 , thanks.
Response: 35.4% (inactive)

Prompt: growth lookup needed for COc1ccc(/C=C2/C(=O)N=C3N2NC(c2ccccc2)=CN3c2ccccc2)cc1 , thanks.
Response: 99.9% (inactive)

Prompt: growth lookup needed for CCCCCCCCN(CCCCCCCC)CC(O)c1cc(Cl)ccc1OC (stereo unspecified) , thanks.
Response: 41.5% (inactive)

Prompt: growth lookup needed for C[N+]1=C(/C=C\C=C\c2ccccc2)C(C)(C)c2ccccc21 , thanks.
Response: -25.5% (active)

Prompt: growth lookup needed for CC(Sc1ccccc1)C(=O)O (stereo unspecified) , thanks.
Response: 117% (inactive)

Prompt: growth lookup needed for Cc1ccc(-c2nc3nc(-c4ccc(F)cc4)nc(N4CCCNCC4)c3o2)cc1 , thanks.
Response: -62.4% (active)

Prompt: growth lookup needed for COc1ccc(C(c2cc(OC)c(OC)c(OC)c2)n2ccnc2)cc1O (stereo unspecified) , thanks.
Response: 18.9% (inactive)

Prompt: growth lookup needed for CCOC(=O)n1cc(-c2nonc2-c2cn(C)c3ccc(OC)cc23)c2cc(F)ccc21 , thanks.
Response: 74.5% (inactive)

Prompt: growth lookup needed for C=C(CN1CC=CCC1)[C@@H]1CC[C@]2(COC(C)=O)CC[C@]3(C)[C@H](CC[C@@H]4[C@@]5(C)CC[C@H](O)C(C)(C)[C@@H]5CC[C@]43C)[C@@H]12 , thanks.
Response: 84.2% (inactive)

Prompt: growth lookup needed for Oc1ccccc1C=Nc1ccc(N2CCN(c3ccccc3)CC2)cc1 , thanks.
Response: 91% (inactive)

Prompt: growth lookup needed for Nc1nc(CSc2n[nH]c(N)n2)nc(Nc2ccccc2)n1 , thanks.
Response: 102% (inactive)

Prompt: growth lookup needed for O=S(=O)(O)c1ccc(N=Nc2ccc(N=Nc3cccc4ccccc34)c(S(=O)(=O)O)c2)cc1 , thanks.
Response: 108% (inactive)

Prompt: growth lookup needed for O=C(NNc1ccccc1)c1ncc[nH]1 , thanks.
Response: 53.5% (inactive)

Prompt: growth lookup needed for COCCn1cc(-c2nc(-c3cn(CCOC)c4ncccc34)cs2)c2ccccc21 , thanks.
Response: 45.2% (inactive)

Prompt: growth lookup needed for CCOC(=O)c1c(-c2ccc(C)cc2)c(C#N)c(=O)n(-c2cccc(C(F)(F)F)c2)c1N , thanks.
Response: 104% (inactive)

---

For each of the compounds below, state its growth.
Test system: MALME-3M melanoma
Assay: NCI-60 one-dose screen, 48 h (100 = growth as untreated, 0 = no growth, -100 = all killed)
Conditions: 10 µM unless noted
Description: Cells are grown in 96 well plates and exposed to the test compound for 48 hours. Compounds are tested at a single concentration, which is 10^-5 M for most compounds. The reported endpoint is percent growth (GI% or GIPRCNT), where numbers from 0 - 100% represent growth inhibition, and numbers from -100% - 0 represent cell death. For example, a value of 40 represents 60% growth inhibition. A value of 0 means no net growth occurred over the course of the experiment. […]
This is part of a sample that, as a whole, favours compounds with a hit. Of some 83,000 tested, about 20% had one in any assay. Activity calls are given as the source filed them. Rule for the calls: active = growth percent below 10; inactive = the rest.

Prompt: growth lookup needed for CN(Cc1ccccc1)c1nc(Cl)c(C2CC(c3ccc4c(c3)OCO4)=NN2c2cc(Cl)cc(Cl)c2)s1 (centres undefined) , thanks.
Response: 95% (inactive)

Prompt: growth lookup needed for COc1ccc2c(c1)CCNC21C(=O)Nc2c(Br)cc(Br)cc21 (centres undefined) , thanks.
Response: 88.3% (inactive)

Prompt: growth lookup needed for C=C(c1ccc(C(=O)O)cc1)c1cc2c(cc1C)C(C)(C)CCC2(C)C , thanks.
Response: 64.9% (inactive)

Prompt: growth lookup needed for COc1ccc(NC(=O)Nc2ccccc2CNc2nc(Nc3ccc(OCCN4CCCC4)cc3)ncc2Cl)cc1 , thanks.
Response: -63.7% (active)

Prompt: growth lookup needed for CN1CCN(CCCN2c3ccccc3Sc3ccc(Cl)cc32)CC1 , thanks.
Response: 91.6% (inactive)

Prompt: growth lookup needed for Nc1ncnc2c1C(c1ccc([N+](=O)[O-])cc1)c1sc3c(F)cccc3c1O2 (centres undefined) , thanks.
Response: 104% (inactive)

Prompt: growth lookup needed for COc1ccc2nc3cc(Cl)ccc3c(NCCCNCCC(C)O)c2c1 (centres undefined) , thanks.
Response: -76.1% (active)

Prompt: growth lookup needed for C=C1C(=O)O[C@@H]2[C@H]3[C@H](COC(C)=O)[C@@H](OC(C)=O)C[C@H]3C(=C)[C@@H](O)C[C@@H]12 , thanks.
Response: 88.9% (inactive)

Prompt: growth lookup needed for COc1ccc(N2CCN(S(=O)(=O)c3oc(-c4ccccc4)nc3C#N)CC2)cc1 , thanks.
Response: 69.6% (inactive)
